Where do the numbers come from? From ChEMBL document CHEMBL1201862.

Listing: GI50 of selected molecules
# Test system: LOX IMVI
# protocol-summary: NCI tumour cell line growth inhibition, 48 h
Active and inactive are the calls of the source. Rule as the data show it: active = GI50 up to about 1.1 µM and inactive = higher.
readout-kind: GI50

* Cc1nc(=O)[nH]c2s/c(=N/C3CCCCC3)n(C3CCCCC3)c(=O)c12 | > 100 µM (inactive)
* O=C1CCC(=O)C(C(=O)CCC(=O)Nc2ccc(Cl)cc2)C1 (centres undefined) | > 100 µM (inactive)
* CC(=O)Nc1ccc(S(=O)(=O)Nc2nnc(S(N)(=O)=O)s2)cc1 | > 100 µM (inactive)
* CCCCCCCCCCCCCC(=O)O[C@H]1CC[C@H](NC(=O)[C@H](OC)[C@H](O)[C@@H](O)[C@H](O)/C=C/C(C)C)C(=O)NC1 [BENGAMIDE A] | 0.00512 µM (active)
* CC(=O)n1nc(-c2ccccc2)n(/N=C/c2ccc([N+](=O)[O-])cc2)c1=O | > 100 µM (inactive)
* CCOP(=O)(OCC)C(Nc1cccc(F)c1)c1ccc(N(C)C)cc1 (centres undefined) | 70.5 µM (inactive)
* CCOC(=O)NC(C(F)(F)F)(C(F)(F)F)P(=O)(OCC)OCC | 12.4 µM (inactive)
* CN(CC(=O)O)Cc1c[nH]c2ccccc12 | > 100 µM (inactive)
* CC1=C2[C@H](c3ccccc3)C3C=CC2(c2ccccc23)N(C(=O)C(c2ccccc2)c2ccccc2)C1=O (some centres undefined) | > 100 µM (inactive)
* COC(=O)C(C(=O)C(=O)Nc1cccc(C)c1)C1=NC(N)SS1 (centres undefined) | > 100 µM (inactive)
* C/C(=N/OCCC(=O)O)C1CC1 | > 100 µM (inactive)
* C=C(C)[C@H]1CC[C@@]2(C)C(C1)[C@H](C)CC[C@@H]2O (some centres undefined) | > 100 µM (inactive)
* CCC1CN2CCc3c([nH]c4ccccc34)[C@@](C(=O)OC)(c3cc4c(cc3OC)N(C)C3C(O)(C(=O)OC)C(C(=O)OC)C5(CC)C=CCN6CCC43C65)C[C@@H](C2)[C@@H]1C(C)(C)C (some centres undefined) | 0.34 µM (active)
* O=[N+]([O-])c1ccc(-n2nnc(C3=NCCN3)c2-c2ccc(Cl)cc2)cc1 | > 100 µM (inactive)
* Cc1ccc(S[C@@H](C)[C@@](O)(C(N)=O)c2ccccc2)cc1 | 14.7 µM (inactive)
* C=C1C(=O)OC2C3C(=C)[C@@H](OC(C)=O)CC3C(C)=CC(OC(=O)C(C)(OC(C)=O)C(C)OC(C)=O)[C@@H]12 (some centres undefined) | 13.4 µM (inactive)
* COc1ccc(/C=C/C(=O)c2c(-c3ccccc3)nn(C)c(=O)c2N2CCOCC2)cc1 | 68.1 µM (inactive)
* CC(C)(C)OC(=O)N1N=NC2C3OC(CC3=O)C21 (centres undefined) | > 100 µM (inactive)
* Cc1cn(C2CC(ON3C(=O)c4ccccc4C3=O)C(CO)O2)c(=O)[nH]c1=O (centres undefined) | > 10 µM (inactive)
